Value source: paper PMC5282848

Biological target: P. dumerilii α2-adrenergic receptor (Platynereis dumerilii, UniProt A0A1J0F5X6)
Construct: full-length in pcDNA3.1(+), expressed in CHO-K1 with Gα-16 and GFP-apoaequorin
Sequence (A0A1J0F5X6 1-619): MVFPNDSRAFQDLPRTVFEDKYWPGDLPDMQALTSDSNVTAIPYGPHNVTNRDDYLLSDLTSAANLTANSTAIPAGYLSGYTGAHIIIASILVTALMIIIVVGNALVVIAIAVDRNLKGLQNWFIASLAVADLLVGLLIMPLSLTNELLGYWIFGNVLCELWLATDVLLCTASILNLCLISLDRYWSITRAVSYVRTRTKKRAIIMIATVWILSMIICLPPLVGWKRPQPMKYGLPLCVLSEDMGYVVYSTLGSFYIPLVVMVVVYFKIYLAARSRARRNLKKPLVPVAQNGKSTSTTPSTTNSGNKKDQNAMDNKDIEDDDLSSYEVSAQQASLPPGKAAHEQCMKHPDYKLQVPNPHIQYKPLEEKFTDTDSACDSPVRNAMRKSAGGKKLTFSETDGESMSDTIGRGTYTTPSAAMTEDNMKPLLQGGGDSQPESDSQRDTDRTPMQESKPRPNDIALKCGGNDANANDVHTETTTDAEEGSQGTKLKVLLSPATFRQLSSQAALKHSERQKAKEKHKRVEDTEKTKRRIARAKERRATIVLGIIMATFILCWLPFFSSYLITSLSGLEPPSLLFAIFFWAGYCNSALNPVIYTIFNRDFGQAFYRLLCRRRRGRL
Test: Ca2+ mobilization, GFP-apoaequorin luminescence in CHO-K1 with Gα-16
Assay type: cell-based
Conditions: read-out: Norepinephrine
Experimental readout: EC50 (nM)
All answers are understood in nM, so give the number only.

query: Which EC50 value is on record for NC[C@H](O)c1ccc(O)c(O)c1 [norepinephrine] ?
result: 8.2

###

Target: P. dumerilii α2-adrenergic receptor (Platynereis dumerilii, UniProt A0A1J0F5X6)
Construct: full-length in pcDNA3.1(+), expressed in CHO-K1 with Gα-16 and GFP-apoaequorin
Test: Ca2+ mobilization, GFP-apoaequorin luminescence in CHO-K1 with Gα-16
Type: cell-based
Conditions: read-out: Epinephrine
Experimental readout: EC50 (nM)
All answers are understood in nM, so give the number only.

query: Which EC50 value is on record for CNC[C@H](O)c1ccc(O)c(O)c1 [epinephrine] ?
result: 11

###

Molecular target: P. dumerilii Octopamine α (Platynereis dumerilii)
Construct: full-length in pcDNA3.1(+), expressed in CHO-K1 with Gα-16 and GFP-apoaequorin
Sequence (A0A1J0F445 1-603): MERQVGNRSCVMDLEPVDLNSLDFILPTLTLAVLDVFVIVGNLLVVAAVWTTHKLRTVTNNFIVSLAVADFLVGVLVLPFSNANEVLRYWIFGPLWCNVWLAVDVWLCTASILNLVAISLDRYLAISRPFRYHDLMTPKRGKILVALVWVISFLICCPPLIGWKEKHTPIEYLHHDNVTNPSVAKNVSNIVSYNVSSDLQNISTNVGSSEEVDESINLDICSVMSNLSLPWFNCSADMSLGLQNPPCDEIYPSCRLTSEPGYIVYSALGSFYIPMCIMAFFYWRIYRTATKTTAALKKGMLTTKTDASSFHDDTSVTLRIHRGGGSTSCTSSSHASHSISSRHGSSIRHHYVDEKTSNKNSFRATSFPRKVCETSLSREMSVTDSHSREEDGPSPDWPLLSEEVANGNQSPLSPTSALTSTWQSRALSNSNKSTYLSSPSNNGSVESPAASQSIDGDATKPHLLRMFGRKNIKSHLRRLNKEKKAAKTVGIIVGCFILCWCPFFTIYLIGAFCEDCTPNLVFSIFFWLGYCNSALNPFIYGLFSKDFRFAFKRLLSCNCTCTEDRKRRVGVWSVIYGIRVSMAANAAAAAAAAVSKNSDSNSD
Assay: Ca2+ mobilization, GFP-apoaequorin luminescence in CHO-K1 with Gα-16
Assay type: cell-based
Conditions: read-out: Yohimbine
Experimental readout: pIC50
Note on units: pIC50 is unitless, being -log10 of a concentration expressed in mol/L.

query: Record COC(=O)[C@@H]1[C@H]2C[C@H]3c4[nH]c5ccccc5c4CCN3C[C@@H]2CC[C@@H]1O [yohimbine] : what is its pIC50 with P. dumerilii Octopamine α (Platynereis dumerilii)?
result: 8.05

###

Target: S. kowalevskii Tyramine-2B (Saccoglossus kowalevskii, UniProt A0ABM0LZ08)
Construct: full-length in pcDNA3.1(+), expressed in CHO-K1 with Gα-16 and GFP-apoaequorin
Sequence (A0ABM0LZ08 1-489): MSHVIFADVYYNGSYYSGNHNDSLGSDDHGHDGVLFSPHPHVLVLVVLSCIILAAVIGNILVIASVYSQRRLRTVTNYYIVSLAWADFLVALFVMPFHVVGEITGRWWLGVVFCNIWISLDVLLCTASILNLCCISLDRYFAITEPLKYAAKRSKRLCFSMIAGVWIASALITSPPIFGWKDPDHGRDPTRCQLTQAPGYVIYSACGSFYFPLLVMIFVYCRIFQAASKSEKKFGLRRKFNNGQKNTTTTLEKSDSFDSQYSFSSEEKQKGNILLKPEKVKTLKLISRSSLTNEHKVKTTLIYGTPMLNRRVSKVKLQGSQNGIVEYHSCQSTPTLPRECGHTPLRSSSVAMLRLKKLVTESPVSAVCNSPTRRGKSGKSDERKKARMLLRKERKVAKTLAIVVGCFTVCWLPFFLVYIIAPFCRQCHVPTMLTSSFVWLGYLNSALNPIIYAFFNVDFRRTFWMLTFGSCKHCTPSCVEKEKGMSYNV
Test: Ca2+ mobilization, GFP-apoaequorin luminescence in CHO-K1 with Gα-16
Experimental readout: pEC50
Note on units: pEC50 is unitless, being -log10 of a concentration expressed in mol/L.

query: Which pEC50 value is on record for NCCc1ccc(O)cc1 [tyramine] ?
result: 8.23
